- Test system: pathogenic bacteria
- PROCEDURE DETAILS: MIC by microdilution broth method (NCCLS M7-A4), in vitro antibacterial activity
- Format: cell-based
- RUN PARAMETERS: Streptococcus pneumoniae, Organism C: fluoroquinolone-resistant clinical isolate of Streptococcus pneumoniae (QRDR amino acid substitutions)
Counter-ions that a name gives are not always drawn.
Parameter: log10 of MIC. Scope: all listed entries.
Kindly note that the scale is log10 and the underlying MIC is in µg/mL.

> print(dat)
                                   compound  observed.result
1  NCC(Cl)=C1CCN(c2nc3c(cc2F)c(=O)c(C(=O)O)cn3C2CC2)CC1            -0.60
2  NCCNCC(Cl)=C1CCN(c2nc3c(cc2F)c(=O)c(C(=O)O)cn3C2CC2)CC1.O=C(O)C(F)(F)F             0.00
3  Nc1nc(-n2cc(C(=O)O)c(=O)c3cc(F)c(N4CC(=C(F)CO)C4)c(Cl)c32)c(F)cc1F            -0.60
4  NC/C(F)=C1\CCCN(c2nc3c(cc2F)c(=O)c(C(=O)O)cn3C2CC2)C1             1.20
5  NC/C=C1\CCCN(c2c(F)cc3c(=O)c(C(=O)O)cn(C4CC4)c3c2OC(F)F)C1             0.90
6  NC/C(Cl)=C1\CCCN(c2nc3c(cc2F)c(=O)c(C(=O)O)cn3C2CC2)C1             0.60
7  COc1c(N2CCC(=C(F)CNC(C)C)CC2)c(F)cc2c(=O)c(C(=O)O)cn(C3CC3)c12 [Compound 252, trifluoroacetic acid salt]             0.90
8  COc1c(N2CCC(=C(Cl)CN3CCOCC3)CC2)c(F)cc2c(=O)c(C(=O)O)cn(C3CC3)c12             0.90

# input Missing value: log10 of MIC, pathogenic bacteria, entry COc1c(N2CCC/C(=C\CN)C2)c(F)cc2c(=O)c(C(=O)O)cn(C3CC3)c12 . Fill in?
# output 0.30

====

Parameter: MIC. Scope: all listed entries.
- Tested on: pathogenic bacteria
- PROCEDURE DETAILS: MIC by microdilution broth method (NCCLS M7-A4), in vitro antibacterial activity
- Type: cell-based
- RUN PARAMETERS: Staphylococcus aureus, Organism A: Staphylococcus aureus OC4172; read-out: MIC
// note: answer is a bare numeric in µg/mL

The examples below pair each entry with its known result.
> print(dat)
                                   compound  reported.endpoint  observed.result
1  C[C@H]1COc2c(N3CCOC/C(=C(\F)CN)C3)c(F)cc3c(=O)c(C(=O)O)cn1c23 [Compound 493]                MIC             0.06
2  C=CCC(CN)=C1CCN(c2c(F)cc3c(=O)c(C(=O)O)cn(C4CC4)c3c2OC)CC1 [Compound 203]                MIC             0.06
3  NC/C(F)=C1/CCCN(c2nc3c(cc2F)c(=O)c(C(=O)O)cn3C2CC2)CC1 [Compound 496]                MIC             0.25

# input Entry NCC(Cl)=C1CCN(c2c(F)cc3c(=O)c(C(=O)O)cn(C4CC4)c3c2OC(F)F)CC1 [Compound 73] has what MIC?
# output 0.06

# input Entry O=C(O)c1cn(C2CC2)c2nc(N3CCC(=CCO)CC3)c(F)cc2c1=O [Compound 163] has what MIC?
# output 0.12

# input Entry NC/C(F)=C1/COCCN(c2nc3c(cc2F)c(=O)c(C(=O)O)cn3C2CC2)C1 [Compound 497] has what MIC?
# output 1

# input Entry C[C@H]1CN(c2nc3c(cc2F)c(=O)c(C(=O)O)cn3C2CC2)C/C(=C(/F)CN)CO1 [Compound 499] has what MIC?
# output 8

# input Entry C/C(CN)=C1/CCCN(c2c(F)cc3c(=O)c(C(=O)O)cn(-c4nc(N)c(F)cc4F)c3c2Cl)C1 [Compound 423] has what MIC?
# output 0.25

Recorded values, source patent US20090156577A1.
